- Test name: Solubility in PBS
- Assay type: physicochemical
Quantity name: Solubility (µM)
Give the value in µM but do not write µM after it.

CC(=O)N1CCC[C@]12CC=CCCCC1(CCCC=CCCCOC(=O)N3CC[C@@](C(=O)N[C@@H](Cc4ccccc4Cl)C(=O)N[C@@H](Cc4csc5ccccc45)C(=O)N[C@@H](CO)C(N)=O)(C3)NC(=O)[C@H](CC(C)C)NC(=O)[C@H](Cc3ccccc3)NC(=O)[C@H](C)NC(=O)[C@H](C)NC(=O)[C@H](CC(=O)O)NC(=O)[C@H](CC(=O)O)NC1=O)NC(=O)[C@H](CC(C)(C)C)NC(=O)[C@H](CC(=O)O)NC2=O (stereo partly drawn)	29
CC(=O)N1CCC[C@]12CC=CCCCC1(CCCC=CCCCCCC[C@@](C)(C(=O)N[C@@H](Cc3ccccc3)C(=O)N[C@@H](Cc3csc4ccccc34)C(=O)N[C@@H](CCC(N)=O)C(N)=O)NC(=O)[C@H](CC(N)=O)NC(=O)[C@H](Cc3ccccc3)NC(=O)[C@H](C)NC(=O)[C@H](C)NC(=O)[C@H](CC(=O)O)NC(=O)[C@H](CC(=O)O)NC1=O)NC(=O)[C@H](C(C)C)NC(=O)[C@H](CC(=O)O)NC2=O (stereo partly drawn)	50

// moving on: another record for Solubility
Record C=CC(=O)NC[C@H](NC(=O)[C@]1(C)CCCCCCC=CCCCC2(CCCC=CC[C@]3(CCCN3C(C)=O)C(=O)N[C@@H](CC(=O)O)C(=O)N[C@@H]([C@@H](C)CC)C(=O)N2)C(=O)N[C@@H](CC(=O)O)C(=O)N[C@@H](CC(=O)O)C(=O)N[C@@H](C)C(=O)N[C@@H](C)C(=O)N[C@@H](Cc2ccccc2)C(=O)N[C@@H](CCC(N)=O)C(=O)N1)C(=O)N[C@@H](Cc1csc2ccccc12)C(=O)N[C@@H](CCC(N)=O)C(N)=O (stereo partly drawn) [I-483] . Reported Solubility: 43

###

IC50 values for the compounds below.
- System under test: full-length beta-Catenin (Uniprot ID P35222) (Homo sapiens, UniProt P35222)
- Construct: 10 nM full-length beta-Catenin (Uniprot ID P35222)
- Sequence (P35222 whole entry): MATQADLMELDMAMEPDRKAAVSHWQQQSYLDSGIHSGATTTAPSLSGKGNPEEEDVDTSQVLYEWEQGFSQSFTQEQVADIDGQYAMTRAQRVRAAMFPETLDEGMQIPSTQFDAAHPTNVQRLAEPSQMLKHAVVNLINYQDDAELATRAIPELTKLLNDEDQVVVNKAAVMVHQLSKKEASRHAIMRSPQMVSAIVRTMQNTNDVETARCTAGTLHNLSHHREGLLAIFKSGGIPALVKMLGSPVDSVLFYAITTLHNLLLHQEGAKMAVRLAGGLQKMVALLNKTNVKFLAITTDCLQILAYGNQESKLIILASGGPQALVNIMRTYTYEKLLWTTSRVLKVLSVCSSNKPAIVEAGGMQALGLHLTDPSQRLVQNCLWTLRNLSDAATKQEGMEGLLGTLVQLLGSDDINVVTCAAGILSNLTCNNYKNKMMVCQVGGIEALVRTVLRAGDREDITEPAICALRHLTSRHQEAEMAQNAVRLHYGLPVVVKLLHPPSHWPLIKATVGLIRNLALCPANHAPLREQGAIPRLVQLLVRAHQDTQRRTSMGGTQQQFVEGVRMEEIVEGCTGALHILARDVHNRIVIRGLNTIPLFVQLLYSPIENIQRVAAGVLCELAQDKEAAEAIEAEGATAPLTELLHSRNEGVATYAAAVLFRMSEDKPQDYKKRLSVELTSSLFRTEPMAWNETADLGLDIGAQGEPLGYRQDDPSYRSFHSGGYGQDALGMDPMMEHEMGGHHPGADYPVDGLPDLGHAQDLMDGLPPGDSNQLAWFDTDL
- Test name: Fluorescence polarization IC50 (beta-catenin / 5FAM-TCF4 10-53 competition)
- Assay type: binding
- Protocol conditions: fluorescence polarization; read-out: beta-Catenin FP IC50
Put your answer as a value accompanied by its unit after it.

CC[C@H](C)[C@@H]1NC(=O)[C@H](CC(=O)O)NC(=O)[C@]2(CC=CCCCC3(CCCC=CCCCCCC[C@@](C)(C(=O)N[C@@H](Cc4ccccc4)C(=O)N[C@@H](Cc4csc5ccccc45)C(=O)N[C@@H](CO)C(N)=O)NC(=O)[C@H](CCC(N)=O)NC(=O)[C@H](Cc4ccccc4)NC(=O)[C@H](C)NC(=O)[C@H](C)NC(=O)[C@H](CCC(=O)O)NC(=O)[C@H](CC(=O)O)NC3=O)NC1=O)CCCN2C(C)=O (stereo partly drawn) [I-639]	0.109 µM
CC(=O)N1CCC[C@]12CC=CCCCC1(CCCC=CCCCOC(=O)N3CC[C@@](C(=O)N[C@@H](Cc4ccsc4)C(=O)N[C@@H](Cc4csc5ccccc45)C(=O)N[C@@H](CCC(N)=O)C(N)=O)(C3)NC(=O)[C@H](CC(C)C)NC(=O)[C@H](Cc3ccccc3)NC(=O)[C@H](C)NC(=O)[C@H](C)NC(=O)[C@H](Cc3ccc(O)cc3)NC(=O)[C@H](CC(=O)O)NC1=O)NC(=O)[C@H](CC(C)(C)C)NC(=O)[C@H](CC(=O)O)NC2=O (stereo partly drawn) [I-1784]	0.528 µM

Record CC(=O)N1CCC[C@]12CC=CCCCC1(CCCC=CCCCCCC[C@@](C)(C(=O)N[C@@H](Cc3ccccc3)C(=O)N[C@@H](Cc3csc4ccccc34)C(=O)N[C@@H](CCC(N)=O)C(N)=O)NC(=O)[C@H](C(C)C)NC(=O)[C@H](Cc3ccccc3)NC(=O)[C@H](C)NC(=O)[C@H](C)NC(=O)[C@H](CC(=O)O)NC(=O)[C@H](CC(=O)NC3CCC3)NC1=O)NC(=O)[C@H](C)NC(=O)[C@H](CC(=O)O)NC2=O (stereo partly drawn) [I-539] . Reported IC50: 5 µM
